test: NCI Yeast Anticancer Drug Screen. Data for the mlh1 rad18 strain (AID 175); settings: S. cerevisiae mlh1 rad18 strain growth inhibition; at 50.0 µM (retest, dose inferred, filed as 5.0)
The panel holds about 79,000 compounds, 15% with a hit somewhere; the sample as a whole holds those more often. Active and inactive are the calls of the source. No stated cut-off is given here; in the data, active means growth inhibition above about 70%; inactive means the rest.
Field 'call' accepts active, inactive

compound=CCC(=O)c1ccc2ccc3ccccc3c2c1 label_value=inactive
compound=Cc1ccc(C(=Nc2ccccc2)N=P(c2ccccc2)(c2ccccc2)c2ccccc2)cc1 label_value=active

Hi team, can someone confirm the assay call for OCC(O)C(OC1OC(CO)C(O)C(O)C1O)C(O)C(/C=N/Nc1ccc(Br)cc1)=N/Nc1ccc(Br)cc1 (configuration not stated) ? active

So what was the verdict on CCC[CH2][Ge]([CH2]CCC)([CH2]CCC)[O]C(C)=O in this test? inactive

What was the test verdict on CC(C)c1ccc(/C=C2\CSCC3=C2NC(=S)NC3c2ccc(C(C)C)cc2)cc1 (configuration not stated) ? active

Check the results log: what was the call for O=[N+]([O-])c1cc(CN(CCO)CCO)c(O)c2ncccc12 ? active

What call does the record list for CN(C)c1nc(=NCc2ccccc2)ss1 ? active

* * *

test: NCI Yeast Anticancer Drug Screen. Data for the mlh1 rad18 strain (AID 175); conditions: S. cerevisiae mlh1 rad18 strain growth inhibition; at 5.0 µM (retest, dose inferred, filed as 0.5); stronger effect = higher value
Compounds without any hit were thinned out: in the full panel of roughly 79,000, 15% have a hit.
Class Y: growth inhibition at least 10%. Class N: growth inhibition below 10%.

Worked set:
compound=CN(C=O)c1ccc2c(c1)Cc1ccccc1-2 label_value=Y
compound=N#Cc1snc2sc(=O)sc12 label_value=Y
compound="CC(C)C(NC(=O)/C=C\\c1ccccc1)C(=O)O (configuration not stated)" label_value=N

Does growth inhibition meet or surpass 10% for CC1=NC(=Cc2ccc(Cl)cc2)C(=O)N1n1c(-c2ccccc2)nc2ccccc2c1=O ? N

Could you tell me if the measured growth inhibition of Cc1cc2c(cc1Cl)Sc1nnc(C)n1S2(=O)=O reaches 10% or more? N

Decide: growth inhibition of CCC1(C)CCC2(C)C(CCC3C4(C)CCCC32OC4=O)C1 (configuration not stated) >= 10%? N

Given Cc1ccccc1N1CCN(c2c3c(nc4ccccc24)CCCCC3)CC1 , state whether its growth inhibition is at least 10%. N

# check: growth inhibition of Cc1ccccc1[P+](C)(c1ccccc1C)c1ccccc1C is greater than or equal to 10% Y

* * *

test: NCI Yeast Anticancer Drug Screen. Data for the rad50 strain (AID 155);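 further: 0% = growth of vehicle-only cultures of the same strain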; details: S. cerevisiae rad50 strain growth inhibition; at 50.0 µM (retest, dose inferred, filed as 5.0); stronger effect = higher value
The panel holds about 79,000 compounds, 15% with a hit somewhere; the sample as a whole holds those more often. The source made the active and inactive calls. No stated cut-off is given here; in the data, active means growth inhibition above about 70%; inactive means the rest.
Measured growth inhibition, listed per entry for reference.

Example entries begin here.
compound=O=C(Nc1ccc(F)cc1)ON=C1CCCCC1 result="99% (active)"
compound=O=C1Nc2ccccc2/C1=N\N=c1/scc(-c2ccccc2)n1-c1ccccc1 result="72% (active)"
compound=N#C/C(=C\c1c(Cl)cccc1Cl)c1ccccc1 result="37% (inactive)"

The value of growth inhibition measured for the compound O=[N+]([O-])C1C(c2ccccc2)CC=CC1N1CCCC1 (stereo not drawn) turned out to be 97% (active)

Entry O=[N+]([O-])c1ccc(C2=CSc3ccccc3N2)cc1 , growth inhibition reported as 6% (inactive)

The compound O=C(NNc1ccc(F)cc1)C12CC3CC(CC(C3)C1)C2 showed growth inhibition equal to 90% (active)

Record COc1ccc(OC)c(N=Nc2c(C)[nH]n(C(N)=S)c2=O)c1 . Reported growth inhibition: 47% (inactive)

The compound COc1cc(NS(C)(=O)=O)ccc1Nc1c2ccccc2nc2ccccc12 showed growth inhibition equal to 85% (active)

* * *

assay: NCI Yeast Anticancer Drug Screen. Data for the sgs1 mgt1 strain (AID 161);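 further: 0% = growth of cultures given vehicle only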; conditions: S. cerevisiae sgs1 mgt1 strain, at 50.0 µM, stronger effect = higher value
Compounds without any hit were thinned out: in the full panel of roughly 79,000, 15% have a hit.
measurement.type: growth inhibition (%)
// note: answer is a bare numeric in %

Reference set (3 entries):
compound=COc1cc(NS(C)(=O)=O)ccc1Nc1c2ccccc2nc2ccccc12 reading_unit=% result=37.2
compound="NC(CCCNc1nc(O)cc(=O)[nH]1)C(=O)O (stereo not given)" reading_unit=% result=7.3
compound="COC(=O)c1ccccc1N=NN(C)CC1OC2OC(C)(C)OC2C1OC (stereo not given)" reading_unit=% result=74.1

The measured growth inhibition associated with C1=C(c2ccccc2)C(c2ccc(OCCN3CCCCC3)cc2)Oc2ccccc21 (stereo not given) reads 97.5

Sure, the documented growth inhibition for O=[N+]([O-])c1ccc(N=Nc2ccc(O)cc2O)cc1 is 98.3

// sample CC(=O)ON=C1C=CC(=C(C#N)c2ccccc2)C=C1 , its growth inhibition was 64.1

// sample O=C(Nc1ccc(C(=O)c2ccccc2)cc1)Nc1ccc(Cl)c(Cl)c1 , its growth inhibition was 94.8

* * *

We begin with a simple list: items and their reported growth inhibition.
assay: NCI Yeast Anticancer Drug Screen. Data for the sgs1 mgt1 strain (AID 161);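 further: 0% = growth of cultures given vehicle only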; details: S. cerevisiae sgs1 mgt1 strain, at 50.0 µM, stronger effect = higher value
The panel holds about 79,000 compounds, 15% with a hit somewhere; the sample as a whole holds those more often.
Quick reminder: number only, in %, skip the unit.

compound="O=C(CC1(O)C(=O)Nc2c(Cl)cc(Cl)cc21)c1ccc(Br)cc1 (centres undefined)" measurement_type="growth inhibition" result=92
compound=CCCCCCCCC(=O)NCCN(CCN)C(=O)CCCCCCCC measurement_type="growth inhibition" result=91.7
compound=O=C(O)C(c1ccc(Cl)cc1)c1ccc(Cl)cc1 measurement_type="growth inhibition" result=91.9

Lab note: COC(=O)c1ncc(Cl)cc1Cl gave growth inhibition of 58.8

* * *

Entries and their growth inhibition values follow.
assay: NCI Yeast Anticancer Drug Screen. Data for the sgs1 mgt1 strain (AID 161);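 further: 0% = growth of cultures given vehicle only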; conditions: S. cerevisiae sgs1 mgt1 strain, at 5.0 µM (retest, dose inferred, filed as 0.5), stronger effect = higher value
This is part of a sample that, as a whole, favours compounds with a hit. Of some 79,000 tested, about 15% had one in any assay.
Lab book: enter the figure in %, no units written.

Reference set, count: 5
molecule=O=C1C=CC2=Nc3ccccc3CCC2=C1 measurement_type="growth inhibition" result=-63
molecule=Cc1ccc(N=c2cc(-c3ccccc3)oc3ccccc23)c(C)c1 measurement_type="growth inhibition" result=3
molecule="CCOC(=O)C(C(C)=O)C1=C(Cl)C(=O)c2ccccc2C1=O (stereo unspecified)" measurement_type="growth inhibition" result=96
molecule=O=C(O)CCC(=O)c1ccc(C2CCCC2)c2ccccc12 measurement_type="growth inhibition" result=3
molecule=N=C(N)c1ccc(N=Nc2cc(/C=C/c3ccccc3)ccc2O)cc1 measurement_type="growth inhibition" result=24

GET /value?item= Cc1cc2c(cc1Cl)Sc1nnc(C)n1S2(=O)=O &field=growth inhibition returns 3

* * *

assay: NCI Yeast Anticancer Drug Screen. Data for the cln2 rad14 strain (AID 165);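 further: 0% = growth equal to vehicle treated cultures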; conditions: S. cerevisiae cln2 rad14 strain, at 5.0 µM (retest, dose inferred, filed as 0.5), stronger effect = higher value
The panel holds about 79,000 compounds, 15% with a hit somewhere; the sample as a whole holds those more often. The source made the active and inactive calls. Rule as the data show it: active = growth inhibition above about 70%; inactive = the rest.
measurement.type: growth inhibition

Reference set, count: 4
compound="O=C1c2cc3c(cc2CC1Br)CCC3 (configuration not stated)" result="98% (active)"
compound=CC1=C(C(=O)Nc2ccccc2C)C(c2ccc(Cl)c(Cl)c2)C(C(=O)Nc2ccccc2C)=C(C)N1 result="8% (inactive)"
compound="CC(/C(=N/NC(=O)C(N)=O)c1c(Cl)ccc(Cl)c1O)C1(O)C(=O)Nc2ccccc21 (configuration not stated)" result="14% (inactive)"
compound=Cc1c(CCl)c(=O)oc2c(C)c3occ(CCl)c(=O)c3cc12 result="41% (inactive)"

// recorded growth inhibition for COC1CCC(O)C(CO)O1 (configuration not stated) : 100% (active)

According to the records, this compound CCCCCCCCCCCC1C(C#N)C(=O)NC(=O)C1C#N (configuration not stated) displays growth inhibition of 73% (active)

The compound identified as CSC(SC)=C(C#N)C(=O)Nc1ccc(C)cc1 registered its growth inhibition at 36% (inactive)

* * *

experiment: NCI Yeast Anticancer Drug Screen. Data for the cln2 rad14 strain (AID 165);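 further: 0% = growth equal to vehicle treated cultures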; conditions: S. cerevisiae cln2 rad14 strain, at 5.0 µM (retest, dose inferred, filed as 0.5), stronger effect = higher value
Compounds without any hit were thinned out: in the full panel of roughly 79,000, 15% have a hit. The source made the active and inactive calls. Cut-off read from the data, not from the text of the source: active = growth inhibition above about 70%; inactive = the rest.
measurement.type: growth inhibition

Solved entries (count: 6):
compound="Cc1[nH]c2ccccc2c1/C=C1\\C(=O)C2CCC1C2 (centres undefined)" measurement_type="growth inhibition" result="-4% (inactive)"
compound=COc1cc(N=Nc2cccc(S(N)(=O)=O)c2)c2ccccc2c1N measurement_type="growth inhibition" result="34% (inactive)"
compound=O=C(NCCCCCNC(=O)C12CC3CC(CC(C3)C1)C2)C12CC3CC(CC(C3)C1)C2 measurement_type="growth inhibition" result="-1% (inactive)"
compound=CS(=O)(=O)c1snc(N)c1C#N measurement_type="growth inhibition" result="6% (inactive)"
compound=CCNC(=S)NNC(=S)NNc1ccccc1 measurement_type="growth inhibition" result="45% (inactive)"
compound="CN(C)C1CCC(N=Nc2cc([N+](=O)[O-])ccc2C(=O)O)CC1 (centres undefined)" measurement_type="growth inhibition" result="1% (inactive)"

The measured growth inhibition associated with CCCCCCCCCC(=O)NN=C(C)C reads -67% (inactive)

For this compound ( CC(=O)Nc1ccc2c(c1)/C(=N/O)c1ccccc1-2 ), measured growth inhibition is -11% (inactive)

Record N#CC(C#N)C(C#N)c1ccc(Cl)c(Cl)c1 (centres undefined) . Reported growth inhibition: 25% (inactive)

For reference, reported growth inhibition for CCCCCCCCCCCCCCCCNC(=S)N/C=C(/C#N)C(=O)OC stands at 67% (inactive)

Looking up O=C1c2ccccc2C(=O)c2sccc21 , I found its growth inhibition recorded as -56% (inactive)

O=C1c2ccccc2NC(=O)C2C1C(c1ccccc1)CC2(O)c1ccccc1 (centres undefined) yielded growth inhibition of -14% (inactive)

Per the record, N=C(/C(=C/c1ccccc1)c1ccccc1)c1ccccc1 has growth inhibition of -4% (inactive)

meta.source: PubChem BioAssay (NCI)
